Tested on: RAW-Dual
PROCEDURE DETAILS: NF-kB SEAP reporter activity, fold change vs agonist alone; higher = enhanced NF-kB activity
ASSAY CONTEXT: library stock concentration (final ~1000-fold dilution): 10 mM; cytotoxicity flag (confluency mask): not cytotoxic; agonist: Imiquimod (TLR7) […]
Whole data set: some 2,900 compounds, median “NF-kB SEAP reporter activity, fold change vs agonist alone” near 0.99, cut for the highest 2% near 2.6. Many of the other results were omitted from the sample, so the highest values are more common in it than they were.
METRIC NAME: NF-kB SEAP reporter activity
Respond numerically, and do not add a unit to the figure.

[
  {
    "COMPOUND": "CN1C2CCC1CC(OC(c1ccccc1)c1ccccc1)C2.CS(=O)(=O)O (centres undefined)",
    "NF-kB SEAP reporter activity": 1.89
  },
  {
    "COMPOUND": "Br.COc1cc(Br)c(Nc2nc(-c3c(C)nc4ncccn34)cs2)c(Br)c1",
    "NF-kB SEAP reporter activity": 1.42
  },
  {
    "COMPOUND": "CCC(=O)OC1CC(=O)OC(C)C/C=C/C=C/C(O)C(C)CC(CC=O)C(OC2OC(C)C(OC3CC(C)(O)C(OC(=O)CC)C(C)O3)C(N(C)C)C2O)C1OC (centres undefined)",
    "NF-kB SEAP reporter activity": 0.961
  },
  {
    "COMPOUND": "O=c1nc(N2CCOCC2)oc2c(-c3cccc4c3sc3ccccc34)cccc12",
    "NF-kB SEAP reporter activity": 1.1
  },
  {
    "COMPOUND": "CCC(C)SSc1ncc[nH]1 (centres undefined)",
    "NF-kB SEAP reporter activity": 1.51
  },
  {
    "COMPOUND": "Cc1cc(C)c(CN2CCc3c(Cl)cc(-c4c(C)noc4C)c(Cl)c3C2=O)c(=O)[nH]1",
    "NF-kB SEAP reporter activity": 1.24
  },
  {
    "COMPOUND": "CC(Nc1nc(NC(C)C(F)(F)F)nc(-c2cccc(Cl)n2)n1)C(F)(F)F (centres undefined)",
    "NF-kB SEAP reporter activity": 1.04
  },
  {
    "COMPOUND": "CSC1(C(=O)Nc2ccc3[nH]nc(-c4ccc(OC(C)C)nc4)c3c2)CCN(CC(=O)N2CC=C(c3ccc(-c4ncn(C)n4)cc3)CC2)C1 (centres undefined)",
    "NF-kB SEAP reporter activity": 0.202
  }
]

INPUT: Specify reported NF-kB SEAP reporter activity for the compound shown: Cl.Cl.NC1CCC(NC2CC2c2ccccc2)CC1 (centres undefined)
OUTPUT: 1.03

INPUT: Specify reported NF-kB SEAP reporter activity for the compound shown: FC(F)F.N=C(N)NCCCC1NC(=O)C(CCCCN)NC(=O)C(Cc2ccc(O)cc2)NC(=O)C(CC(=O)O)NC(=O)CNC1=O.O=C(O)C(F)(F)F.O=CO (centres undefined)
OUTPUT: 0.972

INPUT: Specify reported NF-kB SEAP reporter activity for the compound shown: `c1ccc(C(c2ccccc2)N2CCN(Cc3ccc4c(c3)OCO4)CC2)cc1`
OUTPUT: 1.19

INPUT: Specify reported NF-kB SEAP reporter activity for the compound shown: `CC(C)c1c(-c2ccccc2)[nH]c2c(C#N)cnn2c1=O.Cl`
OUTPUT: 0.757

INPUT: Specify reported NF-kB SEAP reporter activity for the compound shown: COc1cc(CCC(O)CC(O)CCc2ccc(O)c(OC)c2)ccc1O (centres undefined)
OUTPUT: 1.04

INPUT: Specify reported NF-kB SEAP reporter activity for the compound shown: `CCc1ccc(NC(=O)Nc2ccccc2)cc1`
OUTPUT: 0.892
